Multiple publications report pIC50 for High affinity nerve growth factor receptor (Homo sapiens); what follows is a combined list.
pIC50: −log10 of the molar value.
Assay metric: pIC50

>  <Molecule>
COc1ccc(Nc2ccc(C(=O)c3c[nH]c4ncnc(N[C@@H](C)c5ccc(F)cc5)c34)c(F)n2)cn1

>  <Readout value>
> 7.00

$$$$
>  <Molecule>
COCCN1C[C@@H](n2ccc(F)c2)[C@H](NC(=O)Nc2c(C)c(-c3cnc(C4(F)COC4)nc3)nn2-c2ccccc2)C1

>  <Readout value>
8.18

$$$$
>  <Molecule>
O=C1N[C@H](C2CC2)CCc2ncc(F)cc2[C@H]2[C@@H]3C[C@@H]3CN2c2ccn3ncc1c3n2

>  <Readout value>
> 7.00

$$$$
>  <Molecule>
COc1ccc(COc2ccc(Cn3cnc4cc(N5CCN(C)CC5=O)ccc43)cc2OC)cn1

>  <Readout value>
5.22

$$$$
>  <Molecule>
COCCN1C[C@@H](NC(=O)Nc2cc(C(C)(C)C)nn2-c2cccc(F)c2)[C@H](c2ccccc2)C1 (relative stereo)

>  <Readout value>
6.00 to 7.00

$$$$
>  <Molecule>
COc1cc(OC)cc(C(=O)c2c[nH]c3ncc(-c4cccc(NS(C)(=O)=O)c4)cc23)c1

>  <Readout value>
≥ 5.00

$$$$
>  <Molecule>
COc1ncc(CNc2ccc(Cc3c[nH]c4ncncc34)c(F)n2)cc1F

>  <Readout value>
≥ 5.00

$$$$
>  <Molecule>
NC(=O)c1ccc(-c2cc(OC3CCOCC3)c3c(N)n[nH]c3c2)cc1N1CCN(c2cncc(Cl)c2)CC1

>  <Readout value>
8.35

$$$$
>  <Molecule>
CCOc1ccn(-c2ccc(F)cc2)c(=O)c1C(=O)Nc1ccc(Oc2ccnc3cc(OC4CCOCC4)c4c(c23)OCCO4)c(F)c1

>  <Readout value>
> 7.30

$$$$
>  <Molecule>
Cc1cc(Nc2nc3c(cc2F)nc(C)n3[C@@H](C)c2ncc(F)cn2)n[nH]1

>  <Readout value>
5.03

$$$$
>  <Molecule>
COCCN1C[C@@H](NC(=O)Nc2c(Cl)c(-c3cccnc3)nn2-c2ccccc2)[C@H](c2ccc(F)c(F)c2)C1

>  <Readout value>
> 7.00

$$$$

###

// note: IC50 values for High affinity nerve growth factor receptor (Homo sapiens, UniProt P04629) were reported in different studies

>  <Compound>
CC(=O)N1CCN(c2ccc(NC(=O)c3coc4c3C(=O)NC(C)(C)C4)c(OC(C)C)n2)C[C@H]1CO

>  <IC50>
3.3 nM

$$$$
>  <Compound>
Cc1c(C#Cc2cnc3ccc(N4CCOCC4)nn23)cccc1C(=O)Nc1cccc(C(F)(F)F)c1

>  <IC50>
10 to 100 nM

$$$$
>  <Compound>
COCCN1C[C@@H](NC(=O)Nc2c3c(nn2-c2cccnc2)CCC3)[C@H](c2ccccc2)C1 (relative stereo)

>  <IC50>
100 to 1000 nM

$$$$
>  <Compound>
CNC(=O)c1ccc(-c2cc(O[C@@H](C)C(F)(F)F)c3c(N)n[nH]c3c2)cc1N1CCN(CCC(C)(C)C)CC1

>  <IC50>
71.4 nM

$$$$
>  <Compound>
CNc1ncnc2[nH]cc(C(=O)c3ccc(Nc4ccc(OC)nc4)nc3F)c12

>  <IC50>
< 10 nM

$$$$
>  <Compound>
CC(C)n1cc(C(=O)Nc2ccc(Oc3ccnc4cc(OCCCN5CCCCC5)c5c(c34)OCCO5)c(F)c2)c(=O)n(-c2ccc(F)cc2)c1=O

>  <IC50>
< 50 nM

$$$$
>  <Compound>
CC(Oc1cc(-c2ccc(C(N)=O)c(N3CCN(CCN4CCOCC4)CC3)c2)cc2[nH]nc(N)c12)C(F)(F)F (stereo not shown)

>  <IC50>
89.8 nM

$$$$
>  <Compound>
CCn1cc(C(=O)Nc2ccc(Oc3ccnc4cc(OCCOC)c5c(c34)OCCO5)cc2F)c(=O)n(-c2ccc(F)cc2)c1=O

>  <IC50>
< 50 nM

$$$$
>  <Compound>
COCCN1C[C@@H](NC(=O)Nc2c(C)c(OC[C@H](O)COC)nn2-c2ccccc2)[C@H](c2cc(F)c(F)c(F)c2)C1

>  <IC50>
< 100 nM

$$$$
>  <Compound>
COCCN1C[C@@H](NC(=O)Nc2c(C)c(=O)[nH]n2-c2ccccc2)[C@H](c2ccc(Cl)c(F)c2)C1 (relative stereo)

>  <IC50>
< 100 nM

$$$$
>  <Compound>
NC(=O)c1ccc(-c2cc(OC3CCCC3)c3c(N)n[nH]c3c2)cc1N1CCN(CC(=O)N2CCCCC2)CC1

>  <IC50>
44 nM

$$$$
>  <Compound>
COCCN1C[C@@H](NC(=O)Nc2c(Cl)c(C[C@@H](C)O)nn2-c2ccccc2)[C@H](c2ccc(F)c(F)c2)C1

>  <IC50>
< 100 nM

$$$$
>  <Compound>
CCOc1nc(N2CCN(C(C)=O)CC2)ccc1NC(=O)c1coc2c1C(=O)N([C@@H](C)CO)CC2

>  <IC50>
19.5 nM

$$$$
>  <Compound>
Cn1cc(C(=O)Nc2ccc(Oc3ccnc4cc(OCCCN5CCOCC5)c5c(c34)OCCO5)c(F)c2)c(=O)n(-c2ccc(F)cc2)c1=O

>  <IC50>
< 50 nM

$$$$
>  <Compound>
CCOc1ncnc2[nH]cc(Cc3ccc(Nc4ccc(OC)nc4)nc3F)c12

>  <IC50>
< 100 nM

$$$$
>  <Compound>
COCCN1C[C@@H](NC(=O)Nc2cc(-c3cccnc3)nn2C)[C@H](c2cc(F)cc(F)c2)C1

>  <IC50>
< 100 nM

$$$$
>  <Compound>
COCCN1C[C@@H](NC(=O)Nc2c(Cl)c(COC)nn2-c2ccccc2)[C@H](c2ccc(F)cc2)C1

>  <IC50>
< 100 nM

$$$$
>  <Compound>
COCCCc1ccc(C(F)(F)F)cc1NC(=O)Nc1c(C)c(-c2ccc(=O)n(C)c2)nn1-c1ccccc1

>  <IC50>
< 100 nM

$$$$
>  <Compound>
O=C(Nc1c2c(nn1-c1ccccc1)CCC2)N[C@H]1CN(CC(F)(F)F)C[C@@H]1c1cccc(F)c1

>  <IC50>
< 100 nM

$$$$
>  <Compound>
COCCN1C[C@@H](NC(=O)Nc2c(C)c(OC[C@H](O)COC)nn2-c2ccccc2)[C@H](c2ccc(F)c(F)c2)C1

>  <IC50>
< 100 nM

$$$$
>  <Compound>
C[C@H](Nc1ncc(Br)c(Nc2cc(C3CC3)[nH]n2)n1)c1ccc(F)cn1

>  <IC50>
5 nM

$$$$
>  <Compound>
COCCN1C[C@@H](NC(=O)Nc2cc(-c3ccccc3)nn2CCO)[C@H](c2ccc(F)c(F)c2)C1

>  <IC50>
100 to 1000 nM

$$$$

###

A compilation of published pIC50 results with High affinity nerve growth factor receptor (Homo sapiens).
pIC50: −log10 of the molar value.

>  <Compound>
Fc1nc(NCc2ccccc2Cl)ccc1Cc1c[nH]c2ncncc12

>  <pIC50>
≥ 5.00

$$$$
>  <Compound>
O=C(c1ccc(NC2CCC(F)(F)CC2)nc1)c1c[nH]c2ncnc(NCC(F)(F)F)c12

>  <pIC50>
> 8.00

$$$$
>  <Compound>
COc1ccn(-c2ccc(F)cc2)c(=O)c1C(=O)Nc1ccc(Oc2ccnc3cc(OCC(C)(C)O)c4c(c23)OCCO4)cc1Cl

>  <pIC50>
> 7.30

$$$$
>  <Compound>
COCCN1C[C@@H](NC(=O)Nc2c(C)c(-c3cnc(OC)nc3)nn2-c2ccccc2)[C@H](c2ccc(F)cc2)C1

>  <pIC50>
> 7.00

$$$$
>  <Compound>
CCc1ccc(Nc2ccc(C(=O)c3c[nH]c4ncnc(Nc5ccc(C)nc5)c34)c(F)n2)cn1

>  <pIC50>
> 7.00

$$$$
>  <Compound>
COCCN1C[C@@H](NC(=O)Nc2c(C)c(OCC#N)nn2-c2ccccc2)[C@H](c2ccc(F)c(F)c2)C1

>  <pIC50>
> 7.00

$$$$
>  <Compound>
COCCN1C[C@@H](NC(=O)Nc2c(Cl)c(C[C@H](C)O)nn2-c2ccccc2)[C@H](c2ccc(F)c(F)c2)C1

>  <pIC50>
> 7.00

$$$$
>  <Compound>
Cc1cc(NC(=O)N[C@@H]2c3cc(F)c(F)cc3C(C)(C)C[C@H]2O)c(-c2ccccc2)nc1-c1ccnc(CO)c1 (racemic)

>  <pIC50>
≥ 7.30

$$$$

###

Below, IC50 values reported for High affinity nerve growth factor receptor (Homo sapiens, UniProt P04629) across several publications.

>  <Compound>
Cn1cc(C(=O)Nc2ccc(Oc3ccnc4ccc5c(c34)OCCO5)cc2F)c(=O)n(-c2ccc(F)cc2)c1=O

>  <Assay system>
High affinity nerve growth factor receptor (Homo sapiens, UniProt P04629)

>  <IC50>
< 50 nM

$$$$
>  <Compound>
COCCN1C[C@@H](NC(=O)Nc2c(C)c(-c3nc(C(F)(F)F)no3)nn2-c2ccccc2)[C@H](c2ccc(F)c(F)c2)C1

>  <Assay system>
High affinity nerve growth factor receptor (Homo sapiens, UniProt P04629)

>  <IC50>
< 100 nM

$$$$
>  <Compound>
Cc1ccc2c(ccn2C[C@H](O)CNc2cc[nH]c(=O)c2-c2nc3cc4c(cc3[nH]2)C(=O)N(C2CCN(C)CC2)C4=O)c1

>  <Assay system>
High affinity nerve growth factor receptor (Homo sapiens, UniProt P04629)

>  <IC50>
< 500 nM

$$$$
>  <Compound>
COc1ccc(COc2ccc(Cn3cnc4cc(-n5cc(C(C)(C)N)nn5)cnc43)cc2OC)cn1

>  <Assay system>
High affinity nerve growth factor receptor (Homo sapiens, UniProt P04629)

>  <IC50>
88 nM

$$$$
>  <Compound>
O=C(Nc1c2c(nn1-c1ccccc1)CCC2)N[C@@H]1CN(CC(F)(F)F)C[C@H]1c1ccccc1F (relative stereo)

>  <Assay system>
High affinity nerve growth factor receptor (Homo sapiens, UniProt P04629)

>  <IC50>
< 100 nM

$$$$
>  <Compound>
COCCN1C[C@@H](NC(=O)Nc2c(C)c(C)nn2C2CCCCC2)[C@H](c2ccc(F)c(F)c2)C1

>  <Assay system>
High affinity nerve growth factor receptor (Homo sapiens, UniProt P04629)

>  <IC50>
< 100 nM

$$$$
>  <Compound>
O=C(Nc1c2c(nn1-c1ccccc1)CCC2)N[C@@H]1CN(CC(F)(F)F)C[C@H]1c1ccccc1 (relative stereo)

>  <Assay system>
High affinity nerve growth factor receptor (Homo sapiens, UniProt P04629)

>  <IC50>
< 100 nM

$$$$
>  <Compound>
COCCN1C[C@@H](NC(=O)Nc2ccc(-c3cccnc3)nc2C)[C@H](c2ccc(F)c(F)c2)C1

>  <Assay system>
High affinity nerve growth factor receptor (Homo sapiens, UniProt P04629)

>  <IC50>
< 100 nM

$$$$
>  <Compound>
COc1cc(Cn2cnc3cc(C#CCCO)cnc32)ccc1OCc1ccc(C(F)F)nc1

>  <Assay system>
High affinity nerve growth factor receptor (Homo sapiens, UniProt P04629)

>  <IC50>
17 nM

$$$$
>  <Compound>
CCOc1cc(-n2cnc3ccc(N[C@@H](C)c4ncc(F)cn4)nc32)n[nH]1

>  <Assay system>
High affinity nerve growth factor receptor (Homo sapiens, UniProt P04629)

>  <IC50>
3 nM

$$$$
>  <Compound>
CCOc1nn(-c2ccccc2)c(NC(=O)N[C@@H]2CN(Cc3csnn3)C[C@H]2c2ccc(F)c(F)c2)c1C

>  <Assay system>
High affinity nerve growth factor receptor (Homo sapiens, UniProt P04629)

>  <IC50>
< 100 nM

$$$$
>  <Compound>
COCCN1C[C@@H](NC(=O)Nc2c(C)c(OCC(=O)N3CCOCC3)nn2-c2ccccc2)[C@H](c2ccc(F)c(F)c2)C1

>  <Assay system>
High affinity nerve growth factor receptor (Homo sapiens, UniProt P04629)

>  <IC50>
< 100 nM

$$$$
>  <Compound>
COCCN1C[C@@H](NC(=O)Nc2c(C)c(OCC3(C)COC3)nn2-c2ccccc2)[C@H](c2ccc(F)c(F)c2)C1

>  <Assay system>
High affinity nerve growth factor receptor (Homo sapiens, UniProt P04629)

>  <IC50>
< 100 nM

$$$$
>  <Compound>
COc1ccc(Nc2ccc(C(=O)c3c[nH]c4ncnc(N5CCOCC5)c34)c(F)n2)cn1

>  <Assay system>
High affinity nerve growth factor receptor (Homo sapiens, UniProt P04629)

>  <IC50>
> 1000 nM

$$$$
>  <Compound>
COCCN1C[C@@H](NC(=O)Nc2c(F)c(-c3ccccc3)nn2-c2ccccc2)[C@H](c2ccc(F)c(F)c2)C1

>  <Assay system>
High affinity nerve growth factor receptor (Homo sapiens, UniProt P04629)

>  <IC50>
< 100 nM

$$$$
>  <Compound>
CCOc1cc(-n2cnc3ccc(N[C@@H](C)c4ccc(F)cn4)nc32)n[nH]1

>  <Assay system>
High affinity nerve growth factor receptor (Homo sapiens, UniProt P04629)

>  <IC50>
3 nM

$$$$
>  <Compound>
CC(Oc1cc(-c2ccc(C(N)=O)c(N3CCN(c4ccccc4)CC3)c2)cc2[nH]nc(N)c12)C(F)(F)F (stereo not shown)

>  <Assay system>
High affinity nerve growth factor receptor (Homo sapiens, UniProt P04629)

>  <IC50>
3.35 nM

$$$$
>  <Compound>
Cc1cccc(CNc2nc(Cl)c(Cc3c[nH]c4ncccc34)s2)n1

>  <Assay system>
High affinity nerve growth factor receptor (Homo sapiens, UniProt P04629)

>  <IC50>
< 1000 nM

$$$$
>  <Compound>
CCOc1ccn(-c2ccc(F)cc2)c(=O)c1C(=O)Nc1ccc(Oc2ccnc3cc(OCCCN4CCN(C)CC4)c4c(c23)OCCO4)c(F)c1

>  <Assay system>
High affinity nerve growth factor receptor (Homo sapiens, UniProt P04629)

>  <IC50>
< 50 nM

$$$$
